B1: HDV Ribozyme (parent)
chain: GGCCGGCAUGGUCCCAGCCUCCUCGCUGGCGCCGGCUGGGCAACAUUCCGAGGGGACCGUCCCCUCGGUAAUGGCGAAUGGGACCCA

Variants of: B1
Test: self-cleavage, relative activity (ratio to wild type); higher = more cleavage; co-transcriptional
self-cleavage values by entry
METRIC: self-cleavage

variant="C26A U47C" metric=self-cleavage recorded_result=0.646
variant="A70U C86U" metric=self-cleavage recorded_result=1.07
variant="U12C G35A" metric=self-cleavage recorded_result=0.0723
variant="C19G G81C" metric=self-cleavage recorded_result=0.0462
variant="A51C A56C" metric=self-cleavage recorded_result=0.703
variant="G39C C58G" metric=self-cleavage recorded_result=0.277
variant="G11C C14A" metric=self-cleavage recorded_result=0.106
variant="G39A G76U" metric=self-cleavage recorded_result=0.873
variant="C22G G28C" metric=self-cleavage recorded_result=0
variant="G17A U27G" metric=self-cleavage recorded_result=0.485
variant="G10U G82A" metric=self-cleavage recorded_result=0.241
variant="G17C U37A" metric=self-cleavage recorded_result=0
variant="C19A A77U" metric=self-cleavage recorded_result=0.145
variant="G35C U72A" metric=self-cleavage recorded_result=0
variant="C75U U79G" metric=self-cleavage recorded_result=0.0594
variant="C48U C63A" metric=self-cleavage recorded_result=0.791
variant="G6C U12C" metric=self-cleavage recorded_result=0.123
variant="C30A C85G" metric=self-cleavage recorded_result=0.509
variant="G10C U27G" metric=self-cleavage recorded_result=0.798
variant="C22A G35U" metric=self-cleavage recorded_result=0.0791
variant="C3A G6U" metric=self-cleavage recorded_result=0.0492
variant="G35A C63U" metric=self-cleavage recorded_result=0.91
variant="C7A U47G" metric=self-cleavage recorded_result=0.317
variant="G25A G73A" metric=self-cleavage recorded_result=0.0583
variant="C14G G38U" metric=self-cleavage recorded_result=0.106
variant="A78U A83U" metric=self-cleavage recorded_result=0.269
variant="C3G A45C" metric=self-cleavage recorded_result=0.113
variant="C4A A56G" metric=self-cleavage recorded_result=0.217
variant="G59U G74C" metric=self-cleavage recorded_result=0.271
variant="G40U A51G" metric=self-cleavage recorded_result=0.717
variant="G5U C85U" metric=self-cleavage recorded_result=0.399
variant="C4G G6U" metric=self-cleavage recorded_result=0.0237
variant="U79C C84U" metric=self-cleavage recorded_result=0.332
variant="G5A G29A" metric=self-cleavage recorded_result=0.155
variant="A16U U37A" metric=self-cleavage recorded_result=0.0554
variant="U72A A78G" metric=self-cleavage recorded_result=0.504
variant="C64A A70U" metric=self-cleavage recorded_result=0.752
variant="G6U U47C" metric=self-cleavage recorded_result=0.467
variant="G25C C32U" metric=self-cleavage recorded_result=0.0755
variant="G6C A56G" metric=self-cleavage recorded_result=0.453
variant="G17C C36G" metric=self-cleavage recorded_result=0.122
variant="G38C G80A" metric=self-cleavage recorded_result=0.131
variant="A16U G54A" metric=self-cleavage recorded_result=0.795
variant="C49U C61A" metric=self-cleavage recorded_result=0.76
variant="C48G G50C" metric=self-cleavage recorded_result=0.939
variant="U46A G59U" metric=self-cleavage recorded_result=0.674
